Molecular target: Lysine-specific demethylase 4A (Homo sapiens)
Experiment: qHTS Assay for Inhibitors of JMJD2A-Tudor Domain; note: nearly all actives have a fitted effect of over 50% in size
Conditions: AlphaScreen JMJD2A-Tudor / H3K4me3 peptide binding; series mostly up to 114 µM
Out of some 390,000 compounds screened, about 17,000 (4.4%) were called active. Another 8% or so got no clear call; they are omitted. Calls come from the whole dose curve; as a rule, active = well fitted inhibition curve with a large enough effect; inconclusive = small, poorly fitted or top-dose-only effect; inactive = no such curve, though single readings can be large or run the other way. For the sample, actives were picked, then their nearest neighbours and some compounds at random.
Classes to choose from: Yes = active, No = inactive

Below, 10 compounds whose answers are already recorded.
[
  {
    "Compound": "Cn1nnnc1SCC(=O)N1CCN(Cc2ccccc2)CC1",
    "Target system": "Lysine-specific demethylase 4A (Homo sapiens)",
    "Class assignment": "No"
  },
  {
    "Compound": "CCOC(=O)c1cc(OC(=O)c2ccccc2Cl)n(-c2ccccc2)n1",
    "Target system": "Lysine-specific demethylase 4A (Homo sapiens)",
    "Class assignment": "No"
  },
  {
    "Compound": "O=C(c1cccc(Cl)c1)N1CCN(Cc2ccccc2)CC1",
    "Target system": "Lysine-specific demethylase 4A (Homo sapiens)",
    "Class assignment": "No"
  },
  {
    "Compound": "Cc1ccccc1NC(=O)CCOc1ccccc1",
    "Target system": "Lysine-specific demethylase 4A (Homo sapiens)",
    "Class assignment": "No"
  },
  {
    "Compound": "CCn1c(C(C)NC(=O)c2ccc(C)cc2)n[nH]c1=S (stereo unspecified)",
    "Target system": "Lysine-specific demethylase 4A (Homo sapiens)",
    "Class assignment": "Yes"
  },
  {
    "Compound": "COc1cc(Cl)c(NC(=O)C(NS(=O)(=O)c2cccs2)C(C)C)c(OC)c1 (stereo unspecified)",
    "Target system": "Lysine-specific demethylase 4A (Homo sapiens)",
    "Class assignment": "No"
  },
  {
    "Compound": "Cc1cccc(NC(=O)CSC(N)=O)c1C",
    "Target system": "Lysine-specific demethylase 4A (Homo sapiens)",
    "Class assignment": "No"
  },
  {
    "Compound": "CC1=C(c2ccc(F)cc2)S(=O)(=O)N=C1N1CCC(C(=O)NCCc2ccccc2C)CC1",
    "Target system": "Lysine-specific demethylase 4A (Homo sapiens)",
    "Class assignment": "No"
  },
  {
    "Compound": "CCn1c(SCC(=O)NNC(=O)c2ccc(OC)cc2)nnc1C(C)C",
    "Target system": "Lysine-specific demethylase 4A (Homo sapiens)",
    "Class assignment": "No"
  },
  {
    "Compound": "Cc1ccccc1NC(=O)CSC(=O)c1ccccc1",
    "Target system": "Lysine-specific demethylase 4A (Homo sapiens)",
    "Class assignment": "Yes"
  }
]

Okay, next one:
Prompt line: Please let me know the test result on file for CC(C)c1ccc(C2CC(=O)N3CN(C4CCCCC4)CSC3=C2C#N)cc1 (stereo unspecified) .
Response line: Yes

###

Biological target: Lysine-specific demethylase 4A (Homo sapiens) (UniProt O75164)
Sequence (O75164 whole entry, looked up, the tested form may be a part): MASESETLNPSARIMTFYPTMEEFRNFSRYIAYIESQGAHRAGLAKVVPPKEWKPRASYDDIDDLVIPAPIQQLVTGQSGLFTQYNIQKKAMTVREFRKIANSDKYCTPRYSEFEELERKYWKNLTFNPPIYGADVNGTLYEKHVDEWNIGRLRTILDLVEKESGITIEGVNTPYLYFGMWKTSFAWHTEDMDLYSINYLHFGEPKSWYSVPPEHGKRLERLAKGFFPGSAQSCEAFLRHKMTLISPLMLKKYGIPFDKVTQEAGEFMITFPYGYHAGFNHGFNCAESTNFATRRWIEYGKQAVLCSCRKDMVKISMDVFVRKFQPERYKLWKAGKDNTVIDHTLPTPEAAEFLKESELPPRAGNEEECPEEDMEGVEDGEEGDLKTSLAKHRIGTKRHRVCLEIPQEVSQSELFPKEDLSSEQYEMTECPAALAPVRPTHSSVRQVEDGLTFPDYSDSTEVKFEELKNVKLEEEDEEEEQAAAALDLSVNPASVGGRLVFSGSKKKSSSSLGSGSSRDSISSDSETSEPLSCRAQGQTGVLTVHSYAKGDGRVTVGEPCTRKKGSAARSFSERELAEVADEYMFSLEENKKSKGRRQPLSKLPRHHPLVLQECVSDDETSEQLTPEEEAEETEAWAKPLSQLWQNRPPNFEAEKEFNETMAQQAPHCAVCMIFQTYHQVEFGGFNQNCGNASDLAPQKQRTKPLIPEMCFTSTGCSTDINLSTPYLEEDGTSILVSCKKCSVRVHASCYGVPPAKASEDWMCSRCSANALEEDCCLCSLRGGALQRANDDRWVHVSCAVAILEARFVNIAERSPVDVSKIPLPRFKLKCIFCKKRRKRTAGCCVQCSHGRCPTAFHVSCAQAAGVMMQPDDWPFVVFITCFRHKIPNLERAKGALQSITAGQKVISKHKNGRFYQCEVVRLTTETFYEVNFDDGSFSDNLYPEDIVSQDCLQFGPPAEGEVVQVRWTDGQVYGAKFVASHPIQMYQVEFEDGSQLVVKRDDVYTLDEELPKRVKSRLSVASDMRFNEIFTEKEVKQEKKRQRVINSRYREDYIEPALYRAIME
Test: qHTS Assay for Inhibitors of JMJD2A-Tudor Domain; note: nearly all actives have a fitted effect of over 50% in size
Conditions: AlphaScreen JMJD2A-Tudor / H3K4me3 peptide binding; series mostly up to 114 µM
Excerpt: JMJD2A is a jumonji-domain-containing lysine demethylase that uses Fe(II) together with 2-OG to effect oxidative demethylation of histones. Methylation is one of many […] modification that affect epigenetic transcription. […] A quantitative high throughput AlphaScreen has been developed to identify small molecule inhibitors based on a protocol published by NCGC and SGC [4]. […] [2] Yasgar, et al. Compound Management for Quantitative High-Throughput Screening. […]
Screen size: about 390,000 compounds; about 17,000 (4.4%) were called active. Inconclusive results (about 8%) are left out. Calls follow the shape of the dose curve; as a rule, active = well fitted inhibition curve with a large enough effect; inconclusive = small, poorly fitted or top-dose-only effect; inactive = no such curve, though single readings can be large or run the other way. For the sample, actives were picked, then their nearest neighbours and some compounds at random.
Classes to choose from: 1 = active, -1 = inactive

Below, 8 compounds whose answers are already recorded.
[
  {
    "Compound": "Cc1cc(OCCN2CCCC2)cc(C(C)C)c1",
    "Class assignment": 1
  },
  {
    "Compound": "COC(=O)c1cc(NC(=O)CCS(=O)(=O)c2cc(Br)cc3c2N(C(=O)C2CC2)CC3)cc(C(=O)OC)c1",
    "Class assignment": -1
  },
  {
    "Compound": "CCCCN(C)CCC(=O)Nc1ccc(Cl)cc1",
    "Class assignment": -1
  },
  {
    "Compound": "CCOC(=O)C1(C)NC(c2ccco2)C2C(=O)N(c3ccccc3)C(=O)C21 (centres undefined)",
    "Class assignment": -1
  },
  {
    "Compound": "CCCCCCCCOC1OC(CO)C(O)C(O)C1NC(C)=O (centres undefined)",
    "Class assignment": 1
  },
  {
    "Compound": "C[C@@H]1O[C@@H](OC[C@H]2O[C@@H](Oc3c(-c4ccc(O)cc4)oc4cc(O)cc(O)c4c3=O)[C@H](O)[C@@H](O)[C@@H]2O)[C@H](O)[C@H](O)[C@H]1O",
    "Class assignment": -1
  },
  {
    "Compound": "O=C(CN1CCN(C(=O)c2ccco2)CC1)Nc1ccc(Cl)c(C(F)(F)F)c1",
    "Class assignment": -1
  },
  {
    "Compound": "Cn1ccc2cc(S(=O)(=O)N3CCCC(C(=O)NCc4ccccc4F)C3)ccc21 (centres undefined)",
    "Class assignment": -1
  }
]

Prompt line: Please let me know the test result on file for CC1CCC2(CC1)N=C(c1ccccc1)C(=O)N2CC(=O)Nc1ccc(F)c(Cl)c1 (centres undefined) .
Response line: -1

Prompt line: Further, for COC(=O)c1cc(NC(=O)CN2CCN(C(C)=O)CC2)cc(C(=O)OC)c1 ?
Response line: -1

Prompt line: Further, for CC(C)(C)OC(=O)C1=C(CO)CS[C@@H]2[C@H](NC(=O)Cc3ccccc3)C(=O)N12 ?
Response line: -1

Prompt line: Further, for Cc1cc2c(cc1S(=O)(=O)CCC(=O)Nc1ccc(OC(F)(F)F)cc1)OCC(=O)N2 ?
Response line: -1

Prompt line: Further, for COc1ccc(CCOC2OC(CO)C(OC(=O)/C=C/c3ccc(O)c(OC)c3)C(O[C@H]3O[C@@H](C)[C@H](O)[C@@H](O)[C@H]3O)C2O)cc1O (some centres undefined) ?
Response line: -1

Prompt line: Further, for COc1ccc(-c2cc(=O)c3c(O)cc(O[C@@H]4O[C@H](CO[C@@H]5O[C@@H](C)[C@H](O)[C@@H](O)[C@H]5O)[C@@H](O)[C@H](O)[C@H]4O)cc3o2)cc1O ?
Response line: 1

Prompt line: Further, for CN(C)c1ccc(/C=C/C(=O)c2ccc(C(C)(C)C)cc2)cc1[N+](=O)[O-] ?
Response line: 1

Prompt line: Further, for Cc1cc(C(=O)O)ccc1[N+](=O)[O-] ?
Response line: -1

Prompt line: Further, for O=C(CN1CCN(Cc2ccccc2)CC1)Nc1ccc(F)c(F)c1 ?
Response line: 1

Prompt line: Further, for Cc1ccc(C(C)C)cc1OCCN1CCCC1 ?
Response line: 1

Prompt line: Further, for Cc1oc2ccc(O)c(CN3CCCCC3)c2c1C(=O)Nc1cccc(C(F)(F)F)c1 ?
Response line: -1

Prompt line: Further, for Cc1cc(NC(=O)CCN2CCN(Cc3ccccc3)CC2)ccc1Br ?
Response line: -1

Prompt line: Further, for C=CC1=C(C(=O)O)N2C(=O)[C@@H](NC(=O)/C(=N/OCC(=O)O)c3csc(N)n3)[C@H]2SC1 ?
Response line: 1

Prompt line: Further, for CCCCOC(=O)CSc1ncnc2sc3c(c12)CCC(C)C3 (centres undefined) ?
Response line: -1

Prompt line: Further, for COc1ccc(-c2nc(Cn3c(=O)cc(C)c4c(C)nn(-c5ccccc5)c43)c(C)o2)cc1OC ?
Response line: -1

Prompt line: Further, for CC(C)(C)c1ccc(/C=C/C(=O)Nc2ncccn2)cc1 ?
Response line: -1

Prompt line: Further, for CCOc1ccc(NC(=O)c2cc(S(=O)(=O)N3CCCC3)c[nH]2)cc1 ?
Response line: -1

Prompt line: Further, for Cc1ccc(-n2c(=O)c3cccnc3n2CC(=O)Nc2ccccc2C(F)(F)F)cc1C ?
Response line: -1

Prompt line: Further, for C#CCOc1ccc(C2CC(=O)Nc3c2c(C)nn3-c2nc(C)cc(C)n2)cc1 (centres undefined) ?
Response line: -1

Prompt line: Further, for CCN(CC)c1ccc(NC(=O)CN2CCN(CC(=O)Nc3ccc(Cl)cc3)CC2)cc1 ?
Response line: 1

Prompt line: Further, for CC(=O)c1ccc(N2CCN(C(=O)CCc3ccccc3)CC2)cc1 ?
Response line: -1

Prompt line: Further, for CCCCCCCCCOC1OC(CO)C(O)C(O)C1NC(C)=O (centres undefined) ?
Response line: -1

Prompt line: Further, for Cc1ccc(N2CCN(c3ccc(C)cc3)C2c2ccccn2)cc1 ?
Response line: 1
